Tested on: MCF7
procedure_details: NCI tumour cell line growth inhibition, 48 h
The source made the active and inactive calls. No stated cut-off is given here; in the data, active = GI50 up to about 1.1 µM and inactive = higher.
endpoint_label: GI50

Nc1nc(Cl)cc(NCC2(CO)CC(=O)C2)n1: > 100 µM (inactive)
NC(CCC(=O)O)C(=O)N1CCN(c2nc(N3CCCC3)c3nc(Cl)c(NCc4ccccc4)nc3n2)CC1 (stereo not given): 7.24 µM (inactive)
O=C(O)c1ccccc1CC(Cc1ccccc1)C(=O)O (stereo not given): > 10 µM (inactive)
COc1ccc(C2=Nc3c(nc(SC)[nH]c3=O)NC(c3ccccc3)C2)cc1 (stereo not given): 17.1 µM (inactive)
NS(=O)(=O)c1ccc(NC(=O)N/N=C/c2ccccc2[N+](=O)[O-])cc1: 29.7 µM (inactive)
COc1ccc(/C=N/n2c(Cc3ccc(Cl)cc3)n[nH]c2=O)cc1: 77.8 µM (inactive)
O=C(/C=C/c1ccccc1)/C=N/N1C(=S)N(c2ccccc2)C(=N\c2ccccc2)/C1=N/c1ccccc1: 33 µM (inactive)
COc1ccc2c(c1)/c(=C/C#N)c1c3ccccc3[n+](C)n21: 6.1 µM (inactive)
Cc1cc(S(=O)(=O)Nc2nnc3cnc4ccccc4n23)c(S)cc1Cl: > 100 µM (inactive)

Now for a further molecule.
What value of measured GI50 is listed for C=CC(COC(=O)C(C)(C)OC(C)=O)c1ccc(OC(=O)C(C)C)c(OC)c1 (stereo not given) ?
2.51 µM (inactive)

###

Test system: HCT-15
procedure_details: NCI tumour cell line growth inhibition, 48 h
endpoint_label: GI50

# example entries with known answers
COc1cccc2c1Cc1cc(-c3ccccc3)[n+](C)n1-2: 31.3 µM
Cc1c(C)c2c(c(N)c1C#N)C(=O)N(Nc1ccccc1)C2=O: > 100 µM
CC12CCCCC1(C)C2Sc1ccccc1 (stereo unspecified): 55.5 µM

What value of measured GI50 is listed for "CCOC(CN(C)C(=O)OCC(Cl)(Cl)Cl)OCC" ?
77.8 µM

What value of measured GI50 is listed for NC1=NN(c2ccccc2)C(=O)C1C(=O)C(=O)Nc1ccccc1 (stereo unspecified) ?
> 100 µM

What value of measured GI50 is listed for O=[N+]([O-])c1ccc2c3ccccc3[s+]([O-])c2c1 (stereo unspecified) ?
> 100 µM

###

System: OVCAR-8
procedure_details: NCI tumour cell line growth inhibition, 48 h
Activity calls are given as the source filed them. Rule as the data show it: active = GI50 up to about 1.1 µM and inactive = higher.
Let's look at some compounds and their measured GI50.

# example entries with known answers
Cc1cn([C@@H]2C[C@H](CO)[C@@H]2O)c(=O)[nH]c1=O: > 100 µM (inactive)
CNC(=O)OC(C)CN1c2ccccc2Sc2ccccc21 (stereo not given): > 100 µM (inactive)
O=C(O)CN(c1ccccc1)S(=O)(=O)c1ccc(Cl)cc1: > 100 µM (inactive)
N/C(=N\n1c(=S)[nH]c2ccccc2c1=O)Nn1c(=S)[nH]c2ccccc2c1=O: 28.8 µM (inactive)

Now for a further compound.
What value of measured GI50 is listed for "O=C(CSc1nnc(-c2ccc(/N=C\c3ccc(Cl)cc3)cc2)o1)Nc1cccc(Cl)c1" ?
> 100 µM (inactive)

###

Let's look at some compounds and their measured GI50.
System: Malme-3M
procedure_details: NCI tumour cell line growth inhibition, 48 h
Calls of active or inactive are those of the source. No stated cut-off is given here; in the data, active = GI50 up to about 1.1 µM and inactive = higher.

# example entries with known answers
O=C(CSc1nnc(-c2ccc(/N=C\c3ccc(Cl)cc3)cc2)o1)Nc1cccc(Cl)c1: > 100 µM (inactive)
O=c1[nH][nH]c(=O)n1CCCCCCn1c(=O)[nH][nH]c1=O: > 100 µM (inactive)
CC(O)CN1c2ccccc2Sc2ccccc21 (stereo unspecified): > 100 µM (inactive)
CC(C)c1cc(C(C)C)c(S(=O)(=O)N/N=C2\CC3CCC2(C)C3(C)C)c(C(C)C)c1 (stereo unspecified): 25.5 µM (inactive)
N/C(=N\n1c(=S)[nH]c2ccccc2c1=O)Nn1c(=S)[nH]c2ccccc2c1=O: 20.5 µM (inactive)

What value of measured GI50 is listed for O=C(O)CS [THIOGLYCOLIC ACID] ?
> 100 µM (inactive)
